Experiment: growth of efflux-deficient E. coli DRC39 – strain DRC39, OD650, 48 h, E. coli filamentation inducers, primary screen (AID 1179);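 further: screen aims at cell division blockers that make cells filament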
Conditions: E. coli DRC39 delta-acrAB growth, higher = more signal, called active from +8 up or from −8 down
Label YES when z-score >= 0.2; otherwise NO.

Q: For this compound, is measured z-score 0.2 or higher? O=C1c2ccccc2[C@](Cc2ccccc2I)(C(=O)NCC(F)(F)F)[C@H](c2ccc(CO)cc2)N1Cc1ccccc1
Result: YES

Q: For this compound, is measured z-score 0.2 or higher? COc1cccc(C[C@H]2C[C@@H](CO[Si](C(C)C)(C(C)C)C(C)C)N3C(=O)[C@]4(C(C)=O)O[C@]23[C@H]2C(=O)N(C)C(=O)[C@H]24)c1
Result: NO

Q: For this compound, is measured z-score 0.2 or higher? Cc1ccc(C(C)CC(O)C2C=CC3C(=O)N(Cc4ccccc4)C(=O)C3N2n2cnnc2)o1 (stereo not drawn)
Result: NO

Q: For this compound, is measured z-score 0.2 or higher? C[N+](C)(C)CCCC[C@@H]1NC(=O)[C@@H]2C[C@H](C(=O)NCCCCCNC(=O)CS)[C@H](c3cccc(OCCO)c3)N2C1=O
Result: YES

Q: For this compound, is measured z-score 0.2 or higher? CN(C)C(=O)[C@@]1(CCC(=O)OC(C)(C)C)COC(c2ccc(OCCCO)cc2)=N1
Result: YES

Q: For this compound, is measured z-score 0.2 or higher? COc1ccc(C#Cc2ccc3c(c2)[C@]2(C(=O)N3)[C@H](C(N)=O)[C@H]3C(=O)O[C@H](c4ccccc4)[C@H](c4ccccc4)N3[C@@H]2c2ccc(O)cc2)cc1
Result: YES

Q: For this compound, is measured z-score 0.2 or higher? CC(C)CNC(=O)[C@@]1(C)c2ccccc2C(=O)N(Cc2ccccc2)[C@H]1c1ccc(CO)cc1
Result: NO
